meta.source: PubChem BioAssay (NCI)

Overview of recorded TGI for various compounds
- System: HL-60(TB) leukemia
- EXPERIMENT_SUMMARY: NCI tumour cell line growth inhibition, 48 h

Worked examples follow.
Ask | Please report TGI for the following compound: Nc1nc2c(nnn2C2CC(O)C(CO)O2)c(=O)[nH]1 (centres undefined)
Reply | > 38.1 µM

Ask | Please report TGI for the following compound: COc1ccc(/C=C2\CCC(C)C3C2=NN(c2ccccc2)C3c2ccc(OC)c(OC)c2)cc1OC (centres undefined)
Reply | 7.07 µM

Ask | Please report TGI for the following compound: O/N=C/c1ncccc1C1OCCO1
Reply | > 100 µM

Could you now look at the following compound, please?
Ask | Please report TGI for the following compound: CC1CN1C(=O)NCCCCCCNC(=O)N1CC1C (centres undefined)
Reply | > 100 µM

---

- Test system: U251 CNS
- EXPERIMENT_SUMMARY: NCI tumour cell line growth inhibition, 48 h
TEST_READOUT: TGI

Worked examples follow.
Ask | Please report TGI for the following molecule: CC1CN1C(=O)NCCCCCCNC(=O)N1CC1C (stereo unspecified)
Reply | > 100 µM

Ask | Please report TGI for the following molecule: Cc1nc(-c2cc3c(ccc4ccccc43)oc2=O)cs1
Reply | > 100 µM

New cases:
Ask | Please report TGI for the following molecule: CC1OC(OC2C(OC(=O)[C@]34CCC(C)(C)CC3C3=CCC5[C@@]6(C)C[C@H](O)[C@H](OC7OC(CO)C(O)C(O)C7N)[C@@](C)(C(=O)O)C6CC[C@@]5(C)C3(C)CC4)OCC(O)C2O)C(O)C(O)C1OC1OCC(O)C(O)C1O (stereo partly specified)
Reply | > 100 µM

Ask | Please report TGI for the following molecule: O=C1CN(C(=O)C2CCCN2C(=O)C2CCCN2)C(=O)CN1 (stereo unspecified)
Reply | > 100 µM

---

Overview of recorded TGI for various compounds
- System: TK-10 renal
- EXPERIMENT_SUMMARY: NCI tumour cell line growth inhibition, 48 h

Worked examples follow.
Ask | Please report TGI for the following compound: O=c1[nH]nc(-c2ccccc2)n1/N=C/c1ccc([N+](=O)[O-])cc1
Reply | 55 µM

Ask | Please report TGI for the following compound: CCOC(=O)c1oc2cc3c(c4c2c1-c1ccccc1N4C)C=CC(C)(C)O3
Reply | 27.3 µM

Ask | Please report TGI for the following compound: Cc1cc(S(=O)(=O)Nc2nc(N)n(-c3ccccn3)n2)c(S)cc1Cl
Reply | > 100 µM

Ask | Please report TGI for the following compound: O=C(O)C(CS)Nc1c2ccccc2nc2ccccc12 (centres undefined)
Reply | > 100 µM

Ask | Please report TGI for the following compound: CC(C)(C)c1cc(CCC(=O)Nc2ccc(Cl)cc2)nc(NC#N)n1
Reply | > 100 µM

New cases:
Ask | Please report TGI for the following compound: COC(=O)C1=C(O)C(C(=O)OC)[C@]2(O)[C@H](C(=O)OC)[C@H]1C[C@@H](c1ccc(OC)c(OC)c1)[C@H]2C(=O)OC (some centres undefined)
Reply | > 100 µM

Ask | Please report TGI for the following compound: O=c1c2ccccc2[nH]c2c(Cl)cc(Cl)c(NC3CCCCC3)c12
Reply | 61.3 µM

Ask | Please report TGI for the following compound: CC1OC(OC2C(OC(=O)[C@]34CCC(C)(C)CC3C3=CCC5[C@@]6(C)C[C@H](O)[C@H](OC7OC(CO)C(O)C(O)C7N)[C@@](C)(C(=O)O)C6CC[C@@]5(C)C3(C)CC4)OCC(O)C2O)C(O)C(O)C1OC1OCC(O)C(O)C1O (some centres undefined)
Reply | > 100 µM

Ask | Please report TGI for the following compound: COc1ccc2c(c1)[n+](=O)c(C(=O)C/C(=N/OCCCc1ccccc1)C(=O)NC13CC4CC(CC(C4)C1)C3)c(C)n2[O-]
Reply | > 100 µM

Ask | Please report TGI for the following compound: N#C/C(=C\c1ccc2ccccc2c1)c1ccccc1
Reply | 75.7 µM

Ask | Please report TGI for the following compound: CCCn1c(=S)sc2c1nc(C)n1c(Nc3ccccc3)nnc21
Reply | 84 µM

Ask | Please report TGI for the following compound: C/C(Cl)=N/OC(=O)Nc1ccc(S(N)(=O)=O)c(C)c1
Reply | 17.9 µM

Ask | Please report TGI for the following compound: O=c1oc2ccccc2cc1-c1csc(Nc2ccc(F)cc2)n1
Reply | 8.21 µM

---

Overview of recorded TGI for various compounds
- Test system: SF-539 CNS
- EXPERIMENT_SUMMARY: NCI tumour cell line growth inhibition, 48 h

Worked examples follow.
Ask | Please report TGI for the following compound: COC1(C)CP(=O)(OC(C)C)CC(C)=C1Cl (stereo not given)
Reply | 39.2 µM

Ask | Please report TGI for the following compound: C[N+]1=C(/C=C/c2ccc(O)c3ncccc23)C(C)(C)c2ccccc21
Reply | 10.3 µM

Ask | Please report TGI for the following compound: O=C(O)c1nn(-c2ccccc2-c2n[nH]c(=O)[nH]c2=O)c(=O)[nH]c1=O
Reply | > 100 µM

Ask | Please report TGI for the following compound: O=c1cc(N2CCNCC2)nc2ccccn12
Reply | > 100 µM

Ask | Please report TGI for the following compound: C=C(C[C@](O)(C(=O)/C=C/c1ccc(Cl)cc1)C(=O)OC)c1ccccc1
Reply | 4.93 µM

Ask | Please report TGI for the following compound: Cc1cccc(C(C)C)c1NC(=O)/C(Cc1c([N+](=O)[O-])cccc1[N+](=O)[O-])=N/NC(=O)CC#N
Reply | > 100 µM

Ask | Please report TGI for the following compound: COc1cc2cc(Oc3ccc(NC(=O)Nc4ccc(Cl)c(C(F)(F)F)c4)cc3)c(C)nc2cc1OCCN1CCOCC1
Reply | 3.26 µM

Ask | Please report TGI for the following compound: COc1cc(Nc2nc3ccccc3nc2-c2cccs2)cc(OC)c1OC
Reply | > 100 µM

New cases:
Ask | Please report TGI for the following compound: O=C1N[C@H]2c3c(Cl)sc(Cl)c3[C@@H](O)[C@H]2O1
Reply | > 100 µM

Ask | Please report TGI for the following compound: O=C1c2ccccc2C(=O)N1CCc1ncc[nH]1
Reply | > 100 µM

Ask | Please report TGI for the following compound: Nc1cccc(S(=O)(=O)NCC(=O)O)c1
Reply | > 100 µM

Ask | Please report TGI for the following compound: O=C(O)COCC(=O)N(CCOCCN(Cc1ccccc1)C(=O)COCC(=O)O)Cc1ccccc1
Reply | > 100 µM

Ask | Please report TGI for the following compound: Nc1c(-c2ccc(Cl)cc2)[n+]([O-])c2ccccc2[n+]1[O-]
Reply | > 100 µM

---

- Test system: SNB-75 CNS
- EXPERIMENT_SUMMARY: NCI tumour cell line growth inhibition, 48 h
Overview of recorded TGI for various compounds

Worked examples follow.
Ask | Please report TGI for the following compound: CO/C(N)=C(\C#N)N=Cc1ccco1
Reply | > 100 µM

Ask | Please report TGI for the following compound: CCCC1N2CCCCC2[C@@H]2c3[nH]c4ccccc4c3CCN12 (stereo not given in full)
Reply | > 100 µM

Ask | Please report TGI for the following compound: COc1cc(Nc2nc3ccccc3nc2-c2cccs2)cc(OC)c1OC
Reply | > 100 µM

Ask | Please report TGI for the following compound: O=P1(O)c2ccccc2CCc2ccccc21
Reply | > 100 µM

Ask | Please report TGI for the following compound: COC(=O)c1cc(C)ccc1C1CN=NC12Cc1ccc(C)cc1C2=O (stereo not given)
Reply | > 100 µM

New cases:
Ask | Please report TGI for the following compound: Nc1nccc(-c2c(-c3ccc(F)cc3)ncn2C2CCC(O)CC2)n1 (stereo not given)
Reply | > 21 µM

Ask | Please report TGI for the following compound: O=C(CC1C(=O)NN(c2ccc(Br)cc2)C1=O)c1cc(O)ccc1O (stereo not given)
Reply | > 50 µM

Ask | Please report TGI for the following compound: Cc1cc2c(cc1Cl)SC1=NN(C)S(=O)N1S2(=O)=O (stereo not given)
Reply | > 100 µM

Ask | Please report TGI for the following compound: O=C1c2ccccc2C(=O)c2c1cc(S(=O)(=O)O)c(O)c2O
Reply | > 100 µM

Ask | Please report TGI for the following compound: O=C1CCC2(c3ccccc3)Nc3ccncc3N12 (stereo not given)
Reply | > 10 µM

Ask | Please report TGI for the following compound: O=C(O)CCC(=O)Nc1ccc2ccccc2c1
Reply | > 100 µM

Ask | Please report TGI for the following compound: CN1CCN(c2ccc3[nH]c(-c4cc(O)c5c(nc(CO)n5C)c4O)nc3n2)CC1
Reply | > 100 µM

Ask | Please report TGI for the following compound: CN(CCC(=O)O)C1=Nc2ccc(Cl)cc2C(c2ccccc2)=[N+]([O-])C1
Reply | > 100 µM

Ask | Please report TGI for the following compound: Cc1c(C(=O)C/C(=N/NC(=O)C[N+](C)(C)C)C(=O)Nc2ccc(Cl)cc2)[n+](=O)c2ccccc2n1O
Reply | > 100 µM

Ask | Please report TGI for the following compound: Cc1cc(N(CCC#N)CCC#N)ccc1/C=C1\N=C(c2cc([N+](=O)[O-])ccc2Cl)N(c2cccc(Cl)c2)C1=O
Reply | > 100 µM
